assay: Cmax in rat at […], po; assay type: ADME, organism-based; set-up: dose 2.1 mg/kg, route oral; conditions: in vivo
measurement_label: Cmax (ng/mL)
# output: bare number, implied unit ng/mL

Return reported Cmax; argument: `O=C(N[C@H]1CCc2cc(F)cc(F)c2NC1=O)c1n[nH]c(Cc2ccccc2)n1` 320

====

experiment: Clearance in dog at 1.1 mg/kg, iv; assay type: ADME, organism-based, Canis lupus familiaris; details: in vivo
measurement_label: clearance (mL/min/kg)
Only the number, expressed in mL/min/kg, is required.

# get_value(readout='clearance', item= `O=C(N[C@H]1CCc2cc(F)cc(F)c2NC1=O)c1n[nH]c(Cc2ccccc2)n1` ) 9.8

====

assay: Cmax in dog at 2 mg/kg, po; type: ADME, organism-based, Canis lupus familiaris; set-up: dose 2 mg/kg, route oral; settings: in vivo
measurement_label: Cmax (ng/mL)
Write the number in ng/mL without appending the unit.

Consider the compound shown here: `O=C(N[C@H]1CCc2cc(F)cc(F)c2NC1=O)c1n[nH]c(Cc2ccccc2)n1` What is its recorded Cmax? 910

====

assay: AUC (0 to infinity) in rat at 2 mg/kg, po; type: ADME, organism-based; parameters: dose 2 mg/kg, route oral, time infinity; conditions: in vivo
measurement_label: AUC(0-inf) (ng·h/mL)
Express the result in ng·h/mL but write the number alone.

Give the measured AUC(0-inf) of `O=C(N[C@H]1CCc2cc(F)cc(F)c2NC1=O)c1n[nH]c(Cc2ccccc2)n1` . 1100

Value lookup for AUC(0-inf); key = `CN1C(=O)[C@@H](NC(=O)c2n[nH]c(Cc3ccccc3)n2)CCc2cc(F)cc(F)c21` 160

May I ask what AUC(0-inf) has been recorded for `O=C(N[C@H]1COc2ccccc2NC1=O)c1n[nH]c(Cc2ccccc2)n1` ? 2500

Given `CN1C(=O)[C@@H](NC(=O)c2n[nH]c(Cc3ccccc3)n2)CCc2ccccc21` , state its recorded AUC(0-inf). 310

====

experiment: Clearance in rat at 1 mg/kg, iv; type: ADME, organism-based; details: in vivo
measurement_label: clearance (mL/min/kg)
Quick note: give the figure in mL/min/kg, leave out the unit.

GET /values?readout=clearance&item= `O=C(N[C@H]1CCc2cc(F)cc(F)c2NC1=O)c1n[nH]c(Cc2ccccc2)n1` 27

====

test: Chromatographic hydrophobicity index, log D of the compound at pH 7.4 by RP-HPLC analysis; type: physicochemical; details: buffer
measurement_label: logD
Write the value as a bare number.

Could you tell me which logD is on file for `O=C(N[C@H]1CCc2ccccc2NC1=O)c1n[nH]c(Cc2ccccc2)n1` ? 3.1

Record request: logD value, item `O=C(N[C@H]1CCc2cc(F)cc(F)c2NC1=O)c1n[nH]c(Cc2ccccc2)n1` 3.4

Fill blank: measured logD of the molecule `CN1C(=O)[C@@H](NC(=O)c2n[nH]c(Cc3ccccc3)n2)CCc2cc(F)cc(F)c21` is ____. 4.3

Quick one: logD of `O=C(N[C@H]1COc2ccccc2NC1=O)c1cc(Cc2ccccc2)on1` ? 5.1

Data request, read-out logD, for `CN1C(=O)[C@@H](NC(=O)c2n[nH]c(Cc3ccccc3)n2)CCc2ccccc21` 3.8

Could you tell me which logD is on file for `O=C(N[C@H]1COc2ccccc2NC1=O)c1n[nH]c(Cc2ccccc2)n1` ? 3

====

test: AUC in rat at […], po; type: ADME, organism-based; conditions: in vivo
measurement_label: AUC (ng·h/mL)
# value in ng·h/mL; strip the unit string

Dear colleague, I am looking for the recorded AUC of the following compound: `O=C(N[C@H]1CCc2cc(F)cc(F)c2NC1=O)c1n[nH]c(Cc2ccccc2)n1` 1100

====

assay: Volume of distribution at steady state in rat at 1 mg/kg, iv; format: ADME, organism-based; conditions: in vivo, read-out: Vdss
measurement_label: Vd
# number then unit; no other words

What does the data say about its Vd? Entry: `O=C(N[C@H]1CCc2cc(F)cc(F)c2NC1=O)c1n[nH]c(Cc2ccccc2)n1` 1.8 L/kg
